assay: Plasma concentration in ICR mouse at 30 mg/kg, po after 1 hr by LC/MS/MS analysis; assay type: ADME, organism-based
readout name: concentration at 1 h

structure | result
O=C(c1cc(F)cc(Cl)c1)N1CCn2nc(-c3ccc(F)cn3)cc2C1 | 21.4 µM

* * *

Target: Cytochrome P450 2C8 (Homo sapiens, UniProt P10632)
Sequence (P10632 whole entry): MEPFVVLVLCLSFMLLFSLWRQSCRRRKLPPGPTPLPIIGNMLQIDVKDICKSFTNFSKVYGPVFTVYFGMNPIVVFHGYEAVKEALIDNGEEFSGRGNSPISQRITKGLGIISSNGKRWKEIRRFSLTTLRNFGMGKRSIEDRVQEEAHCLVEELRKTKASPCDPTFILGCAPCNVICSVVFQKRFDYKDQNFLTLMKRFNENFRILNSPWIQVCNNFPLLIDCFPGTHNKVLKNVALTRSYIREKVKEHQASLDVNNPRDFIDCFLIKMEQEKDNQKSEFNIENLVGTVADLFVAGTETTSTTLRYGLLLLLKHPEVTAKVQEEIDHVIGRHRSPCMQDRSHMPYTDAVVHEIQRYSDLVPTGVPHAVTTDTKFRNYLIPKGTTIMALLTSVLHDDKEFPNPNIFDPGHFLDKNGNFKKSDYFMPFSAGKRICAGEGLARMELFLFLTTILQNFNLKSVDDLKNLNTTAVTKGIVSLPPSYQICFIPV
pIC50: −log10 of the molar value.

structure | pIC50
O=C(c1cc(F)cc(Cl)c1)N1CCn2nc(-c3ccc(F)cn3)cc2C1 | < 4.40

* * *

assay: AUC(0 to infinity) in rat plasma at 1 mg/kg, iv after 5 mins to 24 hrs; type: ADME, organism-based; parameters: dose 1 mg/kg, route intravenous, time infinity

structure | AUC(0-inf)
O=C(c1cc(F)cc(Cl)c1)N1CCn2nc(-c3ccc(F)cn3)cc2C1 | 7220 ng·h/mL

* * *

experiment: Oral bioavailability in rat plasma at 10 mg/kg, after 15 mins to 24 hrs; assay type: ADME, organism-based

structure | bioavailability (%)
O=C(c1cc(F)cc(Cl)c1)N1CCn2nc(-c3ccc(F)cn3)cc2C1 | 95

* * *

target: Metabotropic glutamate receptor 5 (Homo sapiens, UniProt P41594); assay: Negative allosteric modulation of human recombinant mGluR5 expressed in HEK293 cells assessed as L-glutamate-induced intracellular calcium mobilization incubated for 20 mins before L-glutamate addition
Sequence (P41594 whole entry): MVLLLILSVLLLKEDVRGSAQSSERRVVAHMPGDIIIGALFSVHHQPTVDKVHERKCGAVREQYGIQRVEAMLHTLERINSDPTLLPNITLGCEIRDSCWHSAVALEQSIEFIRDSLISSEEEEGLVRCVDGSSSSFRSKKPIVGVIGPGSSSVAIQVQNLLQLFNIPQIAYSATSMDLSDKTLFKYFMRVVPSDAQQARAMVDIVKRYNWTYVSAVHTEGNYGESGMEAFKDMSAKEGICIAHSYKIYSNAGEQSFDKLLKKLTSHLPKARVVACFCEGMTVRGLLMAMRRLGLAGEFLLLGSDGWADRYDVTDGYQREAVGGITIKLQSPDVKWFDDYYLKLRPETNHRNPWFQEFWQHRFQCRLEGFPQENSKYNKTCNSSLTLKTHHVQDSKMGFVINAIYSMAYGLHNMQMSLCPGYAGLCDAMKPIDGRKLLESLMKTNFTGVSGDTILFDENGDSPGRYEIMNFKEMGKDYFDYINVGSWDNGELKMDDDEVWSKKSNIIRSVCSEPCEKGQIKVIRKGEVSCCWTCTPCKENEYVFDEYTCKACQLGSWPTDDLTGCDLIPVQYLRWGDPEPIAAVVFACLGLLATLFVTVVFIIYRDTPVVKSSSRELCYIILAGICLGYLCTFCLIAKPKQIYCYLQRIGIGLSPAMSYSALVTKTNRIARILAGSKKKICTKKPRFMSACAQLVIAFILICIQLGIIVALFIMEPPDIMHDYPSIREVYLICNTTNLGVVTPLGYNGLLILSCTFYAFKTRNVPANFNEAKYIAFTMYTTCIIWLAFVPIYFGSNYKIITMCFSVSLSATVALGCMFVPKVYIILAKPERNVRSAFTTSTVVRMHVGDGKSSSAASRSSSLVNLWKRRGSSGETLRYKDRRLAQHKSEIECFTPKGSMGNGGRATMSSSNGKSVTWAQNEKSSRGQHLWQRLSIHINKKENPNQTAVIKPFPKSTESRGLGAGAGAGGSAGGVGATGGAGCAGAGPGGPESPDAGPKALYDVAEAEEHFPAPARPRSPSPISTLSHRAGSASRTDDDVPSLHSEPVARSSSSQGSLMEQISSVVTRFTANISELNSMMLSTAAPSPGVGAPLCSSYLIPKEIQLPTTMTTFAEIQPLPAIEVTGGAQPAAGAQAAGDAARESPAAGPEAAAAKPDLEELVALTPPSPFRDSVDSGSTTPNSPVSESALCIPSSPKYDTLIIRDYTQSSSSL
pIC50: −log10 of the molar value.
A collection of molecules and their measured pIC50

structure | pIC50
O=C(c1ccccc1)N1CCn2nc(-c3ccc(Cl)cn3)cc2C1 | 6.70
O=C(c1cc(Cl)cc(Cl)c1)N1CCn2nc(-c3ccccn3)cc2C1 | 6.57
Cc1ccnc(-c2cc3n(n2)CCN(C(=O)c2ccccc2)C3)c1 | 6.35
O=C(c1cc(F)cc(Cl)c1)N1CCn2nc(-c3ccc(F)cn3)cc2C1 | 7.12
O=C(c1cccc(C(F)(F)F)c1)N1CCn2nc(-c3ccc(F)cn3)cc2C1 | 6.42
CC(C)(C)c1cc2n(n1)CCN(C(=O)c1ccc3ccccc3c1)C2 | 6.32
O=C(c1ccccc1)N1CCn2nc(-c3ccc(F)cn3)cc2C1 | 6.79
O=C(c1ccc(Cl)cc1)N1CCn2nc(-c3ccccn3)cc2C1 | 5.02
O=C(c1cccc(Cl)c1)N1CCn2nc(-c3ccccn3)cc2C1 | 6.75
O=C(c1ccccc1)N1CCn2nc(-c3ccncc3)cc2C1 | 5.89
O=C(c1ccccc1)N1CCn2nc(-c3ccccc3)cc2C1 | 6.90
Cc1cccc(-c2cc3n(n2)CCN(C(=O)c2ccccc2)C3)n1 | 6.25
